kon by entry:
Target: T1, human FGFR2b (Kaixia Biotechnology, catalog number FGR-HM1BB) (human, UniProt P21802-3 22-378)
T1 construct: extracellular domain; bought; also called hFGFR2b; human FGFR2b protein
T1 sequence (P21802 other isoform, or with tags, fused parts or gaps): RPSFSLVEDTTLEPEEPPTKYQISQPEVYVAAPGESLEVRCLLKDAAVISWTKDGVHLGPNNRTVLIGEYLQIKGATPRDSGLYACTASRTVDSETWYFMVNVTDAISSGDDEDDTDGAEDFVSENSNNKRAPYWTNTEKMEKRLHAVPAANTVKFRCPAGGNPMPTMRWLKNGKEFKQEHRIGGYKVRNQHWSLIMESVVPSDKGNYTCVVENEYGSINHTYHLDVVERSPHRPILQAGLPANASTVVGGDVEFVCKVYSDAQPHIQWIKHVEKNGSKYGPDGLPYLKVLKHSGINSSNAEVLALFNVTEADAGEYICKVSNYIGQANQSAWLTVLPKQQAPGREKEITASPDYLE
Protocol Text: BLI, antibody on AHC2 sensor
Metric Name: kon (M⁻¹ s⁻¹)

{"Binder": "3H9-VH1-VL1 (antibody, human IgG1, kappa, V domains shown, humanized IgG1) VH: QVQLVQSGAEVKKPGASVKVSCKASGYTFTFYNMHWVRQAPGQGLEWIGLIYPDNGDTSYNQKFKGRATLTADTSTSTVYMELSSLRSEDTAVYYCARGGLDYWGQGTTVTVSS VL: DIQMTQSPSSLSASVGDRVTITCRASENIYSNLAWYQQKPGKSPKLLIYAATNLADGVPSRFSGSGSGTDYTLTISSLQPEDFATYYCQHFWGTPYTFGGGTKVEIKR", "U": "M⁻¹ s⁻¹", "Experimental Result": 284000}
{"Binder": "3C7-VH0-VL0 (antibody, human IgG1, kappa, V domains shown, humanized IgG1) VH: QVQLVQSGAEVKKPGASVKVSCKASGYTFTNYYIHWVRQAPGQGLEWMGAIYPDNGDTSYNQRFKVRATLTADTSTSTVYMELSSLRSEDTAVYYCARAFTYWGQGTTVTVSS VL: DIQMTQSPSSLSASVGDRVTITCRASENIYGALNWYQQKPGKAPKLLIYGATNLADGVPSRFSGSGSGTDFTLTISSLQPEDFATYYCQNVLSTPYTFGGGTKVEIKR", "U": "M⁻¹ s⁻¹", "Experimental Result": 293000}
{"Binder": "3C7-VH3-VL3 (antibody, human IgG1, kappa, V domains shown, humanized IgG1) VH: QVQLVQSGAEVKKPGASVKVSCKASGYIFRNYYIHWVKQAPGQGLEWMGAIYPDNGDTSYNQRFKVRATLTADTSTSTVYMELSSLRSEDTAVYYCARAFTYWGQGTTVTVSS VL: DIQMTQSPSSLSASVGDRVTITCGASENIYGALNWYQRKPGKSPKLLIYGATNLADGVPSRFSGSGSGTDYTLTISSLQPEDVATYYCQNVLSTPYTFGGGTKLEIKR", "U": "M⁻¹ s⁻¹", "Experimental Result": 320000}
{"Binder": "3C7-VH3-VL2 (antibody, human IgG1, kappa, V domains shown, humanized IgG1) VH: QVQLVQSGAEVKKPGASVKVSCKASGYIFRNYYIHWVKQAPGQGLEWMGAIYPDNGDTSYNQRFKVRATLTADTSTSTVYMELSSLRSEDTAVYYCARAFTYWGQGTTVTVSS VL: DIQMTQSPSSLSASVGDRVTITCGASENIYGALNWYQRKPGKAPKLLIYGATNLADGVPSRFSGSGSGTDYTLTISSLQPEDFATYYCQNVLSTPYTFGGGTKLEIKR", "U": "M⁻¹ s⁻¹", "Experimental Result": 334000}
{"Binder": "3C7-VH1-VL1 (antibody, human IgG1, kappa, V domains shown, humanized IgG1) VH: QVQLVQSGAEVKKPGASVKVSCKASGYIFTNYYIHWVRQAPGQGLEWMGAIYPDNGDTSYNQRFKVRATLTADTSTSTVYMELSSLRSEDTAVYYCARAFTYWGQGTTVTVSS VL: DIQMTQSPSSLSASVGDRVTITCGASENIYGALNWYQQKPGKAPKLLIYGATNLADGVPSRFSGSGSGTDYTLTISSLQPEDVATYYCQNVLSTPYTFGGGTKVEIKR", "U": "M⁻¹ s⁻¹", "Experimental Result": 405000}
{"Binder": "3C7-VH0-VL1 (antibody, human IgG1, kappa, V domains shown, humanized IgG1) VH: QVQLVQSGAEVKKPGASVKVSCKASGYTFTNYYIHWVRQAPGQGLEWMGAIYPDNGDTSYNQRFKVRATLTADTSTSTVYMELSSLRSEDTAVYYCARAFTYWGQGTTVTVSS VL: DIQMTQSPSSLSASVGDRVTITCGASENIYGALNWYQQKPGKAPKLLIYGATNLADGVPSRFSGSGSGTDYTLTISSLQPEDVATYYCQNVLSTPYTFGGGTKVEIKR", "U": "M⁻¹ s⁻¹", "Experimental Result": 224000}
{"Binder": "3C7-VH2-VL3 (antibody, human IgG1, kappa, V domains shown, humanized IgG1) VH: QVQLVQSGAEVKKPGASVKVSCKASGYIFRNYYIHWVRQAPGQGLEWMGAIYPDNGDTSYNQRFKVRATLTADTSTSTVYMELSSLRSEDTAVYYCARAFTYWGQGTTVTVSS VL: DIQMTQSPSSLSASVGDRVTITCGASENIYGALNWYQRKPGKSPKLLIYGATNLADGVPSRFSGSGSGTDYTLTISSLQPEDVATYYCQNVLSTPYTFGGGTKLEIKR", "U": "M⁻¹ s⁻¹", "Experimental Result": 272000}
{"Binder": "3C7-VH1-VL3 (antibody, human IgG1, kappa, V domains shown, humanized IgG1) VH: QVQLVQSGAEVKKPGASVKVSCKASGYIFTNYYIHWVRQAPGQGLEWMGAIYPDNGDTSYNQRFKVRATLTADTSTSTVYMELSSLRSEDTAVYYCARAFTYWGQGTTVTVSS VL: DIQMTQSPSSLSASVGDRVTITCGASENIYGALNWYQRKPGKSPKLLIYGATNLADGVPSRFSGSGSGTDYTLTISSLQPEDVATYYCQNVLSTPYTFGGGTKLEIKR", "U": "M⁻¹ s⁻¹", "Experimental Result": 403000}
{"Binder": "3C7-VH0-VL3 (antibody, human IgG1, kappa, V domains shown, humanized IgG1) VH: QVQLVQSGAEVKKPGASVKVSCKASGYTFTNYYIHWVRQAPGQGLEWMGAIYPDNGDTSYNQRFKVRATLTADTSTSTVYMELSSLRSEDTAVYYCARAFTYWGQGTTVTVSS VL: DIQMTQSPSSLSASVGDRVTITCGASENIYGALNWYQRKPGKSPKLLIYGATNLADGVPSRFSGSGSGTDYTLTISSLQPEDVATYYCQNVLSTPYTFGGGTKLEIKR", "U": "M⁻¹ s⁻¹", "Experimental Result": 238000}
{"Binder": "3C7-VH1-VL0 (antibody, human IgG1, kappa, V domains shown, humanized IgG1) VH: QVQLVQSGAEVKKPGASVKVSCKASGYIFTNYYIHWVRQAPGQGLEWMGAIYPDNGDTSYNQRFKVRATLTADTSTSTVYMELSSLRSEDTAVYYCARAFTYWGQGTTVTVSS VL: DIQMTQSPSSLSASVGDRVTITCRASENIYGALNWYQQKPGKAPKLLIYGATNLADGVPSRFSGSGSGTDFTLTISSLQPEDFATYYCQNVLSTPYTFGGGTKVEIKR", "U": "M⁻¹ s⁻¹", "Experimental Result": 504000}
{"Binder": "FR21 (antibody, human IgG1, kappa, V domains shown, also called positive control antibody FR21; positive monoclonal antibody FR21) VH: QVQLVQSGAEVKKPGSSVKVSCKASGYIFTTYNVHWVRQAPGQGLEWIGSIYPDNGDTSYNQNFKGRATITADKSTSTAYMELSSLRSEDTAVYYCARGDFAYWGQGTLVTVSS VL: DIQMTQSPSSLSASVGDRVTITCKASQGVSNDVAWYQQKPGKAPKLLIYSASYRYTGVPSRFSGSGSGTDFTFTISSLQPEDIATYYCQQHSTTPYTFGQGTKLEIKR", "U": "M⁻¹ s⁻¹", "Experimental Result": 279000}
{"Binder": "3C7-VH2-VL1 (antibody, human IgG1, kappa, V domains shown, humanized IgG1) VH: QVQLVQSGAEVKKPGASVKVSCKASGYIFRNYYIHWVRQAPGQGLEWMGAIYPDNGDTSYNQRFKVRATLTADTSTSTVYMELSSLRSEDTAVYYCARAFTYWGQGTTVTVSS VL: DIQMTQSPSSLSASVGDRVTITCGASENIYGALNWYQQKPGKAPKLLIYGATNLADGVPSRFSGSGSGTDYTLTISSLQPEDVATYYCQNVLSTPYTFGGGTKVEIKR", "U": "M⁻¹ s⁻¹", "Experimental Result": 246000}
